These entries and their values trace back to patent US20110071108A1.

- Test system: Salmonella choleraesuis
- Test name: Bacterial panel testing, MIC by broth microdilution
- Format: cell-based
- Assay context: 20-24 hours growth
Measured attribute: MIC SC

Sample `CN(C)CCNC[C@H]1O[C@@H]2O[C@H]3[C@H](O)[C@@H](O)[C@@H](O[C@H]4[C@H](O)[C@@H](O)[C@@H](O[C@H]5[C@H](O)[C@@H](O)[C@@H](O[C@H]6[C@H](O)[C@@H](O)[C@@H](O[C@H]7[C@H](O)[C@@H](O)[C@@H](O[C@H]8[C@H](O)[C@@H](O)[C@@H](O[C@H]1[C@H](O)[C@H]2O)O[C@@H]8CNCCN(C)C)O[C@@H]7CNCCN(C)C)O[C@@H]6CNCCN(C)C)O[C@@H]5CNCCN(C)C)O[C@@H]4CNCCN(C)C)O[C@@H]3CNCCN(C)C` ; MIC SC observed: >200 µg/mL
